protocolSummary: ovarian cancer cell viability with rucaparib, profiling panel, oncology-focused library, rucaparib conditional (AID 1508598)
testParameters: patient-derived ovarian cancer cells, CellTiter-Glo viability, 144 h; at 0.000305 µM; OCI-C5x cells; without rucaparib; stronger effect = lower value
Active and inactive are the calls of the source.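 Rule for the calls: active = normalized viability below 100% at a tested concentration; inactive = the rest.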
measuredParameter: viability

// below: answered compounds
compound: CS(=O)c1ccc(-c2nc(-c3ccc(F)cc3)c(-c3ccncc3)[nH]2)cc1 (configuration not stated)
measurement: 139% (inactive)
//
compound: Nc1nc(F)nc2c1ncn2[C@@H]1O[C@H](COP(=O)(O)O)[C@@H](O)[C@@H]1O
measurement: 110% (inactive)
//
compound: CC(C)c1onc(-c2c(Cl)cccc2Cl)c1COc1ccc(/C=C/c2cccc(C(=O)O)c2)c(Cl)c1
measurement: 107% (inactive)
//
compound: O=C(O)c1ccc(-c2c[nH]c3ncc(-c4ccccc4)cc23)cc1C1CCCC1
measurement: 105% (inactive)
//
compound: C[C@@H](N)C1CCC(C(=O)Nc2ccncc2)CC1 (some centres not stated)
measurement: 113% (inactive)

Report viability for every entry below.
1. Cn1cc(C2=C(c3ccc(Cl)cc3Cl)C(=O)NC2=O)c2ccccc21
2. Nc1nc(Cl)nc2c1ncn2[C@H]1C[C@H](O)[C@@H](CO)O1

Result:
1. 117% (inactive)
2. 113% (inactive)
